- Tested target: HLA-B*40:01
- Assay protocol: IEDB peptide-MHC binding, purified MHC/competitive/radioactivity; filed as Kd, often an IC50 or EC50 that approximates it; bounds were set here for any values at or beyond the usual limits of such assays
- Details: source organism: Mammarenavirus brazilense
Experimental readout: pKd
Interpret pKd as the negative base-10 log of the concentration measured in mol/L.

Inquiry: So what's the measured pKd for this one? EDQGNPIVL
Reply text: 5.31

====

- Tested target: HLA-B*15:09
- Assay protocol: IEDB peptide-MHC binding, purified MHC/direct/fluorescence; filed as Kd, often an IC50 or EC50 that approximates it; bounds were set here for any values at or beyond the usual limits of such assays
- Details: source organism: Burkholderia mallei ATCC 23344
Experimental readout: Kd

Inquiry: So what's the measured Kd for this one? EPFSRRHPL
Reply text: ≥ 20 µM

====

- Tested target: HLA-B*39:01
- Assay protocol: IEDB peptide-MHC binding, purified MHC/competitive/fluorescence; filed as Kd, often an IC50 or EC50 that approximates it; bounds were set here for any values at or beyond the usual limits of such assays
- Details: source organism: Bacillus cereus G9241
Experimental readout: Kd

Inquiry: // lookup Kd | system=HLA-B*39:01 | key= ITNPFFYQM
Reply text: ≥ 20 µM

====

- Tested target: HLA-B*57:01
- Assay protocol: IEDB peptide-MHC binding, purified MHC/direct/fluorescence; filed as Kd, often an IC50 or EC50 that approximates it; bounds were set here for any values at or beyond the usual limits of such assays
- Details: source organism: Marburg virus - Musoke, Kenya, 1980
Listed sequences paired with reported Kd

| Seq text | Kd |
| --- | --- |
| QGKQHLHSL | ≥ 20 µM |
| GFPSLESSF | ≥ 20 µM |

Inquiry: So what's the measured Kd for this one? THYSGNIVH
Reply text: ≥ 20 µM

====

- Tested target: HLA-A*29:02
- Assay protocol: IEDB peptide-MHC binding, purified MHC/competitive/radioactivity; filed as Kd, often an IC50 or EC50 that approximates it; bounds were set here for any values at or beyond the usual limits of such assays
- Details: source organism: Mammarenavirus guanaritoense
Listed sequences paired with reported Kd
Provide only the numeric value, understood in nM.

The cases that follow already have their Kd on record.
| Seq text | Unit annotation | Kd |
| --- | --- | --- |
| YVQRFFLRV | nM | 767 |
| MYEMHRESLL | nM | 9880 |
| IRHLFGNYI | nM | 571 |

Consider now this further sequence.
Inquiry: // lookup Kd | system=HLA-A*29:02 | key= SFYSDPKRFF
Reply text: 124

====

- Tested target: HLA-A*02:06
- Assay protocol: IEDB peptide-MHC binding, purified MHC/competitive/radioactivity; filed as Kd, often an IC50 or EC50 that approximates it; bounds were set here for any values at or beyond the usual limits of such assays
- Details: source organism: Hepatitis C virus (isolate 1)
Experimental readout: Kd (nM)
Provide only the numeric value, understood in nM.

Inquiry: So what's the measured Kd for this one? KLVALGINAV
Reply text: 3.94

====

- Tested target: HLA-B*46:01
- Assay protocol: IEDB peptide-MHC binding, purified MHC/competitive/fluorescence; filed as Kd, often an IC50 or EC50 that approximates it; bounds were set here for any values at or beyond the usual limits of such assays
- Details: source organism: Homo sapiens
Experimental readout: Kd

| Seq text | Observed |
| --- | --- |
| MQDVFTFYV | ≥ 20 µM |

Inquiry: So what's the measured Kd for this one? FLQQRKPPL
Reply text: ≥ 20 µM

Inquiry: So what's the measured Kd for this one? YITDYSNDI
Reply text: ≥ 20 µM

====

- Tested target: HLA-A*01:01
- Assay protocol: IEDB peptide-MHC binding, purified MHC/competitive/radioactivity; filed as Kd, often an IC50 or EC50 that approximates it; bounds were set here for any values at or beyond the usual limits of such assays
- Details: source organism: Mammarenavirus guanaritoense
Experimental readout: pKd
Interpret pKd as the negative base-10 log of the concentration measured in mol/L.

| Seq text | Tested target | pKd |
| --- | --- | --- |
| YVQRFFLRV | HLA-A*01:01 | 5.99 |

Consider now this further sequence.
Inquiry: So what's the measured pKd for this one? YSDPKRFFL
Reply text: 8.14

====

- Tested target: HLA-A*03:01
- Assay protocol: IEDB peptide-MHC binding, purified MHC/direct/fluorescence; filed as Kd, often an IC50 or EC50 that approximates it; bounds were set here for any values at or beyond the usual limits of such assays
- Details: source organism: Mycobacterium leprae
Experimental readout: pKd
Interpret pKd as the negative base-10 log of the concentration measured in mol/L.

Inquiry: // lookup pKd | system=HLA-A*03:01 | key= VVYKTGAIR
Reply text: 6.12

====

- Tested target: HLA-A*29:02
- Assay protocol: IEDB peptide-MHC binding, purified MHC/competitive/fluorescence; filed as Kd, often an IC50 or EC50 that approximates it; bounds were set here for any values at or beyond the usual limits of such assays
- Details: source organism: Vibrio vulnificus YJ016
pKd: −log10 of the molar value.
Experimental readout: pKd

Inquiry: So what's the measured pKd for this one? HTSALSLGY
Reply text: ≥ 10.00

====

Listed sequences paired with reported Kd
- Tested target: HLA-B*58:01
- Assay protocol: IEDB peptide-MHC binding, purified MHC/competitive/radioactivity; filed as Kd, often an IC50 or EC50 that approximates it; bounds were set here for any values at or beyond the usual limits of such assays
- Details: source organism: Dengue virus 2 Jamaica/1409/1983
Provide only the numeric value, understood in nM.

The cases that follow already have their Kd on record.
| Seq text | Tested target | Unit annotation | Observed |
| --- | --- | --- | --- |
| ASSLLKNDIP | HLA-B*58:01 | nM | 2100 |
| KAINVLRGF | HLA-B*58:01 | nM | 43 |

Consider now this further sequence.
Inquiry: So what's the measured Kd for this one? LTSSQQKADW
Reply text: 59.2

====

- Tested target: HLA-B*15:42
- Assay protocol: IEDB peptide-MHC binding, purified MHC/competitive/fluorescence; filed as Kd, often an IC50 or EC50 that approximates it; bounds were set here for any values at or beyond the usual limits of such assays
- Details: source organism: Mycobacterium tuberculosis variant bovis BCG str. Pasteur 1173P2
pKd: −log10 of the molar value.
Experimental readout: pKd

Inquiry: So what's the measured pKd for this one? RWRWFRAAM
Reply text: ≤ 5.30

====

- Tested target: HLA-B*58:01
- Assay protocol: IEDB peptide-MHC binding, purified MHC/direct/fluorescence; filed as Kd, often an IC50 or EC50 that approximates it; bounds were set here for any values at or beyond the usual limits of such assays
- Details: source organism: Reston ebolavirus - Reston
pKd: −log10 of the molar value.
Listed sequences paired with reported pKd

Inquiry: So what's the measured pKd for this one? QAFEAGIDF
Reply text: 5.99

Inquiry: So what's the measured pKd for this one? KHDFIDNPL
Reply text: ≤ 4.70

Inquiry: So what's the measured pKd for this one? FHRKKTDAL
Reply text: ≤ 4.70

====

- Tested target: HLA-A*02:03
- Assay protocol: IEDB peptide-MHC binding, purified MHC/competitive/fluorescence; filed as Kd, often an IC50 or EC50 that approximates it; bounds were set here for any values at or beyond the usual limits of such assays
- Details: source organism: Human immunodeficiency virus 1
Experimental readout: Kd (nM)
Provide only the numeric value, understood in nM.

The cases that follow already have their Kd on record.
| Seq text | Tested target | Experimental readout | Unit annotation | Observed |
| --- | --- | --- | --- | --- |
| VLYCVHQEI | HLA-A*02:03 | Kd | nM | 8.8 |
| SLVKHHMYV | HLA-A*02:03 | Kd | nM | 1.88 |

Consider now this further sequence.
Inquiry: So what's the measured Kd for this one? FLGKIWSS
Reply text: 1.38

====

- Tested target: HLA-B*18:01
- Assay protocol: IEDB peptide-MHC binding, purified MHC/competitive/fluorescence; filed as Kd, often an IC50 or EC50 that approximates it; bounds were set here for any values at or beyond the usual limits of such assays
- Details: source organism: Vaccinia virus WR
Experimental readout: Kd (µM)
Provide only the numeric value, understood in µM.

Inquiry: So what's the measured Kd for this one? FYLFTFTIY
Reply text: 3.89

====

- Tested target: HLA-B*27:03
- Assay protocol: IEDB peptide-MHC binding, purified MHC/competitive/fluorescence; filed as Kd, often an IC50 or EC50 that approximates it; bounds were set here for any values at or beyond the usual limits of such assays
- Details: source organism: Homo sapiens
Listed sequences paired with reported Kd

The cases that follow already have their Kd on record.
| Seq text | Kd |
| --- | --- |
| FLQQRKPPL | ≥ 20 µM |
| MQDVFTFYV | ≥ 20 µM |

Inquiry: So what's the measured Kd for this one? YITDYSNDI
Reply text: ≥ 20 µM
